Hey, just so you know, these numbers are from ChEMBL document CHEMBL1201862.

test system: 786-0; assay: NCI tumour cell line growth inhibition, 48 h
Active and inactive are the calls of the source. Rule as the data show it: active = GI50 up to about 1.1 µM and inactive = higher.
API: response.call in True (active), False (inactive)

In: Each compound tested received a call. Report the one for Cc1ccc(S(=O)OCc2c(C)c(C)c(COS(=O)c3ccc(C)cc3)c(C)c2C)cc1 (centres undefined) .
Out: False

In: Each compound tested received a call. Report the one for O=C1NC2NC3NC(=O)NC3NC2N1 (centres undefined) .
Out: False

In: Each compound tested received a call. Report the one for CC(=O)C1=C(C)N(c2ccc(C)cc2)C2(O)C3=C(C(=O)c4ccccc4C3=O)C(O)=CC12Cl (centres undefined) .
Out: False

In: Each compound tested received a call. Report the one for CN(C)CC1CN=C(N)O1 (centres undefined) .
Out: False

In: Each compound tested received a call. Report the one for O=c1[nH]c(=O)n(COCc2ccccc2)c2ccc([N+](=O)[O-])cc12 .
Out: False

In: Each compound tested received a call. Report the one for NS(=O)(=O)c1ccc(NNc2c3ccccc3nc3c(C(=O)Nc4ccc(S(N)(=O)=O)cc4)cccc23)cc1 .
Out: False

In: Each compound tested received a call. Report the one for C/C(=N\n1c(Cc2ccccc2)n[nH]c1=O)c1ccc([N+](=O)[O-])cc1 .
Out: False

In: Each compound tested received a call. Report the one for O=C1Oc2ccccc2C1C/C(=N\Nc1ccccc1)c1ccccc1O (centres undefined) .
Out: False

In: Each compound tested received a call. Report the one for CCCN(CCCC(NC(C)=O)C(=O)NCc1ccccc1)C(=O)N(C)N=O (centres undefined) .
Out: False

In: Each compound tested received a call. Report the one for CC(C)(Cl)C(Br)CCC(C)(Br)C(Br)CBr (centres undefined) .
Out: False

In: Each compound tested received a call. Report the one for CCc1cccc(CC)c1NC1=CC(=O)C(=O)c2ccccc21 .
Out: False

In: Each compound tested received a call. Report the one for CC(=O)OC(C)(C)[C@H]1O[C@]23O[C@]1(C)C[C@@H](C)[C@@H]2[C@@]1(C)CC[C@@]24C[C@@]25CC[C@H](O[C@@H]2OC[C@@H](O)[C@H](O)[C@H]2O)C(C)(C)[C@@H]5CC[C@H]4[C@]1(C)[C@H]3O .
Out: False

In: Each compound tested received a call. Report the one for COc1ccc(C2c3cc4c(cc3OC(N3CCOCC3)C2C)OCO4)c(OC)c1OC (centres undefined) .
Out: False

In: Each compound tested received a call. Report the one for c1ccc(C2N=C(c3ccccn3)C(c3ccccn3)=NC2c2ccccc2)cc1 (centres undefined) .
Out: False

In: Each compound tested received a call. Report the one for O=C(O/C(=C(/N=N/c1ccccc1)c1ccccc1)c1ccccc1)c1ccccc1 .
Out: False

In: Each compound tested received a call. Report the one for CCC1C2C=CC(CC2)N1S(=O)(=O)c1ccc(C)cc1 (centres undefined) .
Out: False

In: Each compound tested received a call. Report the one for C=CCn1c(=O)ccn(/C(=C/C(=O)OCC)C(=O)OCC)c1=O .
Out: False

In: Each compound tested received a call. Report the one for CC(C)(C)OC(=O)N1CCC(NC(=O)NC2CCN(C(=O)OC(C)(C)C)CC2)CC1 .
Out: False

In: Each compound tested received a call. Report the one for C=CCOc1ccc(C2c3c(n[nH]c3O)CC(C)(O)C2C(=O)OC)cc1OC (centres undefined) .
Out: False

In: Each compound tested received a call. Report the one for CC(=O)OCC1OC(SC2OC(COC(C)=O)C(OC(C)=O)C(OC(C)=O)C2OC(C)=O)C(OC(C)=O)C(OC(C)=O)C1OC(C)=O (centres undefined) .
Out: False

In: Each compound tested received a call. Report the one for Cc1ccc(-c2cc(=O)c(=O)[nH][nH]2)cc1 .
Out: False

In: Each compound tested received a call. Report the one for N=C(N)SCCN1CCCCC1 .
Out: False

In: Each compound tested received a call. Report the one for COc1cc2c(cc1OC)C1=C(C=O)c3ccc(OC)c(OC)c3C(O)N1CC2 (centres undefined) .
Out: False

In: Each compound tested received a call. Report the one for Cc1ccc(C)c(NC2=NC(=O)C(CC(=O)Nc3ccc(Cl)cc3Cl)S2)c1 (centres undefined) .
Out: False

In: Each compound tested received a call. Report the one for O=C1N[C@H]2c3c(Cl)sc(Cl)c3/C(=N/O)[C@H]2O1 .
Out: False

In: Each compound tested received a call. Report the one for CC1CCC[P+](Cc2ccccc2)(c2ccccc2)CC1 (centres undefined) .
Out: False

In: Each compound tested received a call. Report the one for O=P(O)(O)c1ccccc1Oc1ccccc1 .
Out: False

In: Each compound tested received a call. Report the one for COC(=O)c1ccc(/C=N/c2cc(C)nn2-c2ccccc2)cc1 .
Out: False

In: Each compound tested received a call. Report the one for O=C1/C(=C/c2ccc(Cl)cc2)Sc2scc(-c3cccc([N+](=O)[O-])c3)[n+]21 .
Out: False

In: Each compound tested received a call. Report the one for CC(C)n1c(=O)n(-c2ccccc2)n(C(C)(C)C)c1=O .
Out: False

In: Each compound tested received a call. Report the one for CC(=O)OC1COC(N2C(=O)/C(=N\Nc3ccc([N+](=O)[O-])cc3)c3cc(Br)c([N+](=O)[O-])cc32)C(OC(C)=O)C1OC(C)=O (centres undefined) .
Out: False

In: Each compound tested received a call. Report the one for CCN(CC)c1ccc2c(c1)Oc1ccc(N(CC)CC)cc1C21Oc2ccccc2-c2c1c1ccccc1n2CC (centres undefined) .
Out: False

In: Each compound tested received a call. Report the one for CC(C)(C)[Si](C)(C)OC1(CCc2ccccc2OS(=O)(=O)C(F)(F)F)CCCC=C1COCc1ccccc1 (centres undefined) .
Out: False

In: Each compound tested received a call. Report the one for O=C1Nc2ccccc2C(=O)/C1=C/NC(=S)NC1CCCCC1 .
Out: False

In: Each compound tested received a call. Report the one for [N-]=[N+]=Nc1nc2ccccc2c(N=[N+]=[N-])c1Cl .
Out: False

In: Each compound tested received a call. Report the one for CC(=O)O[C@H]1C(=O)[C@@]2(C)[C@H]([C@H](OC(=O)c3ccccc3)[C@]3(O)C[C@H](OC(=O)[C@H](O)[C@@H](NC(=O)c4cccc(N=[N+]=[N-])c4)c4ccccc4)C(C)=C1C3(C)C)[C@]1(OC(C)=O)CO[C@@H]1C[C@@H]2O .
Out: True

In: Each compound tested received a call. Report the one for CCC(=O)C12OC3OC(C)(C)OC3C1OC(C)(C)O2 (centres undefined) .
Out: False

In: Each compound tested received a call. Report the one for COc1ccc(CNC2=C(NC(C)=O)C(=O)c3ccccc3C2=O)cc1 .
Out: False

In: Each compound tested received a call. Report the one for C[N+](C)([O-])CCC=C1c2ccccc2CCc2ccccc21 .
Out: False
